// data source = patent US20240246954A1

- SYSTEM_NAME: Avi-KRAS G12D/Q25A (1-169) GppNHp/3×FLAG-PI3KCA (157-299) (Homo sapiens, UniProt P01116, G12D/Q25A)
- Construct: Avi-KRAS G12D/Q25A (1-169) GppNHp
- Sequence (P01116 1-169 isoform P01116-2 G12D/Q25A limits assumed): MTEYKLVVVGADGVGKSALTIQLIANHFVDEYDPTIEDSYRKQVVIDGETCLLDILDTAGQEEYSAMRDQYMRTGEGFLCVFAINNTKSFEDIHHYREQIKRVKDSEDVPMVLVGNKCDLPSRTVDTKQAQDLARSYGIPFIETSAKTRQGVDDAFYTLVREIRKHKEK
- ASSAY_SUMMARY: HTRF PI3KCA-KRAS G12D/Q25A-GppNHp disruption assay
- SETTINGS: 1 h incubation

COMPOUND	IC50
C[C@@H]1CN(c2nc(OC[C@@]34CCCN3C[C@@H](F)C4)nc3c(F)c(-c4ccc(F)c5sc(N)nc45)c(C(F)(F)F)cc23)C[C@H](C)N1 [Compound 229]	10 to 30 µM
CN(c1nc(OC[C@@]23CCCN2C[C@H](F)C3)nc2cc(-c3ccc(F)c4sc(N)c(C#N)c34)c(C(F)(F)F)cc12)[C@H]1CNC[C@H]1F [Compound 347]	0.1 to 1 µM
CO[C@@H]1CN(C)C[C@H]1Oc1nc(NC2CNC2)c2cc(Cl)c(-c3ccc(F)c4sc(N)nc34)c(F)c2n1 [Compound 68]	10 to 30 µM
CN1CCC[C@H]1COc1nc(NCCN)c2cnc(-c3ccc(F)c4sc(N)nc34)c(F)c2n1 [Compound 81]	10 to 30 µM
CN1CCC[C@H]1COc1nc(N2CCNCC2)c2cc(-c3ccoc3)c(-c3ccc(F)c4sc(N)nc34)c(F)c2n1 [Compound 143]	10 to 30 µM
CN(c1nc(OCC23CCCN2CCC3)nc2c(F)c(-c3ccc(F)c4sc(N)nc34)c(C(F)(F)F)cc12)[C@@H]1CCN(C(=O)C2CN2)C1 (stereo partly shown) [Compound 230]	1 to 10 µM
Nc1nc2c(F)ccc(-c3c(-c4ccoc4)cc4c(NC5CNC5)nc(OCC56CCCN5CCC6)nc4c3F)c2s1 [Compound 113]	1 to 10 µM
CN1C[C@H](F)C[C@H]1COc1nc(N2CCNCC2)c2cc(Cl)c(-c3ccc(F)c4sc(N)nc34)c(F)c2n1 [Compound 128]	10 to 30 µM
Nc1nc2c(-c3c(C(F)(F)F)cc4c(N5CC[C@H]6CCNC[C@H]65)nc(OCC56CCCN5CCC6)nc4c3F)ccc(F)c2s1 [Compound 348]	1 to 10 µM
CN(c1nc(OCC23CCCN2CCC3)nc2c(F)c(-c3ccc(F)c4sc(N)nc34)c(-c3ccoc3)cc12)C1CN(C(=O)CN)C1 [Compound 163]	10 to 30 µM
Nc1nc2c(-c3c(OC(F)(F)F)cc4c(N5CC6CC5CN6)nc(OC[C@@]56CCCN5C[C@H](F)C6)nc4c3F)ccc(F)c2s1 (stereo partly shown) [Compound 240]	1 to 10 µM
CN(c1nc(N2CC(N3CC4(CC4)C3)C2)nc2c(F)c(-c3ccc(F)c4sc(N)c(C#N)c34)c(C(F)(F)F)cc12)[C@@H]1CCNC1 [Compound 365]	0.1 to 1 µM
N#Cc1cc2c(N3C[C@H]4CC[C@@H](C3)N4)nc(OC[C@@]34CCCN3C[C@H](F)C4)nc2c(F)c1-c1ccc(F)c2sc(N)c(C#N)c12 [Compound 359]	0.1 to 1 µM
CN1C[C@H](F)C[C@H]1COc1nc(N2CCNCC2)c2cc(-c3ccoc3)c(-c3ccc(F)c4sc(N)nc34)c(F)c2n1 [Compound 141]	10 to 30 µM
Nc1nc2c(-c3c(C(F)(F)F)cc4c(N5CC6CCC(C5)N6)nc(OC[C@@]56CCCN5C[C@H](F)C6)nc4c3F)ccc(F)c2s1 [Compound 219]	0.1 to 1 µM
CN1CCC(c2nc(N3CCNCC3)c3cc(Cl)c(-c4ccc(F)c5sc(N)nc45)c(F)c3n2)CC1 [Compound 101]	10 to 30 µM
Nc1nc2c(-c3c(C(F)(F)F)cc4c(NC5CNC5)nc(OC[C@@]56CCCN5C[C@H](F)C6)nc4c3F)ccc(F)c2s1 [Compound 247]	0.1 to 1 µM
C[C@@H]1CN(c2nc(OC[C@@]34CCCN3C[C@H](F)C4)nc3c(F)c(-c4ccc(F)c5sc(N)nc45)c(C(F)F)cc23)[C@@H](C)CN1 [Compound 302]	1 to 10 µM
Nc1nc2c(-c3c(C(F)(F)F)cc4c(N5CCNCC5)ncnc4c3F)ccc(F)c2s1 [Compound 65]	10 to 30 µM
